# assay: StAR promoter reporter inhibitors, counter-screen for LRH-1 inverse agonist project, cell-based, luminescence, high throughput (AID 651611)
# condition.label: StAR promoter luciferase reporter counterscreen, at 3.6 µM
Active and inactive are the calls of the source. No stated cut-off is given here; in the data, active means inhibition above about 28%; inactive means the rest.
Give your call using only these classes: active, inactive

C[C@H]1CCC/C=C/[C@@H]2C[C@H](O)C[C@H]2[C@H](O)[C@H](S(=O)c2ccc(O)cc2)CC(=O)O1 (stereo partly specified); active
Cc1ccc(NC(=O)c2ccc([N+](=O)[O-])o2)cc1S(=O)(=O)N1CCOCC1; inactive
CCc1ccc(N2C=C(C(=O)OC)C(c3ccc(OC)cc3)C(C#N)=C2N)cc1 (stereo unspecified); active
CCOc1ccccc1-n1c(SCC(=O)Nc2ccccc2C(=O)O)nc2ccccc2c1=O; inactive
CN(C)c1ccc(CN(C(=O)C2COc3ccccc3O2)C2CCS(=O)(=O)C2)cc1 (stereo unspecified); inactive

Could you now consider this next molecule?
Lab log entry: Cc1ccc(N2CC(C(=O)Nc3nc4ccc(S(C)(=O)=O)cc4s3)CC2=O)cc1C (stereo unspecified) — outcome as called in the assay?
inactive
